# merged literature set: Ki with Hepatocyte growth factor receptor (Homo sapiens)

1) Nc1ncc(-c2cccc(NC(=O)N3CCCC3)c2)cc1-c1nnnn1-c1cccc(F)c1F :: 100 to 1000 nM
2) C[C@@H](NC(=O)c1nc(-c2cnn(C3CCNCC3)c2)cnc1N)c1nnc2ccc(-c3ccccc3)nn12 :: ≤ 250 nM
3) Nc1cccc(-c2cnc3[nH]cc(-c4oncc4-c4cccc(F)c4F)c3c2)c1 :: < 200 nM

API: the following record is the query input.
Prompt: Observed Ki on Hepatocyte growth factor receptor (Homo sapiens) for Nc1ncc(-c2ccc(NC(=O)c3ccncc3)cc2)cc1-c1nnnn1-c1cccc(F)c1F , please.
Response: ≤ 100 nM
